- Test system: Mus musculus
- test_details: Intravenous hypnotic dose that caused a loss of righting reflex for a minimum period of 30s in 50% of treated mice determined by probit analysis.
- Format: functional
Cut-off 40 µM/kg on HD50: below means Satisfied, at or above means Not satisfied.

molecule: COC(=O)CC(C(=O)Oc1c(OC)cccc1OC)N1CCOCC1 (stereo unspecified)
label: Not satisfied
--
molecule: COc1cccc(OC)c1OC(=O)C(CCSC)N1CCCCCC1 (stereo unspecified)
label: Satisfied
--
molecule: COc1cc(C)cc(OC)c1OC(=O)C(CC(=O)N1CCOCC1)N1CCOCC1 (stereo unspecified)
label: Not satisfied
--
molecule: CCN(CC)C(=O)CC(C(=O)Oc1c(OC)cc(C)cc1OC)N1CCOCC1 (stereo unspecified)
label: Satisfied
--
molecule: COc1cc(C)cc(OC)c1OC(=O)C(CC(=O)N1CCCCC1)N1CCCCC1 (stereo unspecified)
label: Satisfied

Prompt line: Dear reviewer, please state whether COCCN(CCOC)C(CCS(C)(=O)=O)C(=O)Oc1c(OC)cc(C)cc1OC (stereo unspecified) has HD50 strictly beneath 40 µM/kg.
Response line: Not satisfied

Prompt line: State whether 40 µM/kg exceeds HD50 recorded for COc1cccc(OC)c1OC(=O)C(CCSC)N1CCOCC1 (stereo unspecified) .
Response line: Satisfied

Prompt line: hey, is HD50 for COCCN(CCOC)C(CCS(C)(=O)=O)C(=O)Oc1c(OC)cccc1OC (stereo unspecified) lower than 40 µM/kg or not?
Response line: Not satisfied

Prompt line: Confirm or reject: HD50 of COc1cc(C)cc(OC)c1OC(=O)C(CCS(C)(=O)=O)N1CCOCC1 (stereo unspecified) lies strictly below 40 µM/kg
Response line: Not satisfied

Prompt line: Take the molecule COc1cc(C)cc(OC)c1OC(=O)C(CC(=O)N1CCCC1)N1CCCCCC1 (stereo unspecified) and say whether its HD50 is less than 40 µM/kg.
Response line: Not satisfied

Prompt line: API: query returns whether the molecule falls strictly under 40 µM/kg in HD50. Query: COc1cccc(OC)c1OC(=O)C(CCSC)N1CCCCC1 (stereo unspecified)
Response line: Satisfied
